Reported Migration by item:
- assay_procedure: migration of stabiliser from PVC bottles into water at 50° C.
- Type: physicochemical
- conditions_used: water 50° C.; 0.30 pct; 10 days

Field: example entries. Status: answers known.
# smi, endpoint_result
rows = [
    ("CCCCCCCCCCCCOC(=O)C1=C(C)NC(C)=C(C(=O)OCCCCCCCCCCCC)C1", "< 5 µg/L"),
    ("CCCCCCCCCCCCCCCCCCOC(=O)C1=C(C)NC(C)=C(C(=O)OCCCCCCCCCCCCCCCCCC)C1", "< 5 µg/L"),
]

--- query ---
Briefly, Migration measured for CCCCCCCCCCCCCCOC(=O)C1=C(C)NC(C)=C(C(=O)OCCCCCCCCCCCCCC)C1 : < 5 µg/L

Value source: patent US4209439A
